The reported measurements were obtained from paper PMC4860631.

Test: in vivo
Conditions: male, BALB/c, mouse, in vivo, iv, 5 mg/kg, AUC0-inf
parameter_measured: AUC(0-inf)

Item under review: CC(=O)O[C@H]1C(=O)[C@@]2(C)[C@H]([C@H](OC(=O)c3ccccc3)[C@]3(O)C[C@H](OC(=O)[C@H](O)[C@@H](NC(=O)c4ccccc4)c4ccccc4)C(C)=C1C3(C)C)[C@]1(OC(C)=O)CO[C@@H]1C[C@@H]2O [Paclitaxel, reference compound] . Reported AUC(0-inf)?
2520 ng·h/mL

----------
Assay: in vivo
Conditions: male, BALB/c, mouse, in vivo, iv, 2.5 mg/kg, CL
Protocol: After dosing, blood samples were collected at different time points for each group. […] Three animals were used for each time point. […] The target and actual time of blood sampling were recorded relative to the time of dosing. […] The plasma was protected from light and stored at −80 °C until analyzed by liquid chromatography-mass spectrometry/mass spectrometry (LC-MS/MS) for quantification. […]
parameter_measured: clearance (mL/min/kg)
Give bare numbers, in mL/min/kg.

GET /values?readout=clearance&item= COc1ccc(-c2cc(C(O)C3CCCCN3)c3ccccc3n2)cc1 (stereo not shown) [NSC23925b]
24.6

----------
Assay: Plasma pharmacokinetics after single I.P./I.V. dose in male Sprague-Dawley rats (LC-MS/MS)
Details: male, Sprague-Dawley, rat, plasma, iv, 1 mg/kg, t1/2, SD rats; doxorubicin I.V. 1.00 mg/kg alone
parameter_measured: half-life (min)
Answers are plain numbers, in min.

Which value of half-life has been reported for COc1cccc2c1C(=O)c1c(O)c3c(c(O)c1C2=O)C[C@@](O)(C(=O)CO)C[C@@H]3O[C@H]1C[C@H](N)[C@H](O)[C@H](C)O1 [Doxorubicin, reference compound] in the records?
630

----------
Assay: Plasma pharmacokinetics after single I.P./I.V. dose in male BALB/c mice (LC-MS/MS)
Settings: male, BALB/c, mouse, plasma, iv, 2 mg/kg, t1/2, BALB/c mice; doxorubicin I.V. 2.00 mg/kg combined with NSC23925b 2.50 mg/kg
parameter_measured: half-life (h)
Answers are plain numbers, in h.

# half-life lookup, item COc1cccc2c1C(=O)c1c(O)c3c(c(O)c1C2=O)C[C@@](O)(C(=O)CO)C[C@@H]3O[C@H]1C[C@H](N)[C@H](O)[C@H](C)O1 [Doxorubicin, reference compound]
12.8

----------
Experiment: Determination of maximum tolerated dose (MTD) in mice
Assay type: in vivo
Conditions: BALB/c, mouse, in vivo, ip; male mice, I.P., all five tolerated; read-out: tolerated dosage (MTD study)
Experimental: The MTD determination assay was composed of sighting study and main study. […] Time of appearance, degree, and lasting/recovery time of signs were recorded in details. […] Animals were fasted overnight prior to dosing. Following the period of fasting, the animals were weighed and the dose was calculated according to the body weight. […] Individual weights of animals were determined shortly before the test substance was administered and twice weekly thereafter. Weight changes were calculated and recorded. […]
parameter_measured: MTD (mg/kg)
One number for each entry, in mg/kg.

Quick one: MTD of COc1ccc(-c2cc(C(O)C3CCCCN3)c3ccccc3n2)cc1 (stereo not shown) [NSC23925b] ?
68.8

----------
Assay: Plasma pharmacokinetics after single I.P./I.V. dose in male BALB/c mice (LC-MS/MS)
Details: male, BALB/c, mouse, plasma, iv, 2 mg/kg, t1/2, BALB/c mice; doxorubicin I.V. 2.00 mg/kg alone
parameter_measured: half-life (h)
Numbers only, in h.

What measured half-life goes with COc1cccc2c1C(=O)c1c(O)c3c(c(O)c1C2=O)C[C@@](O)(C(=O)CO)C[C@@H]3O[C@H]1C[C@H](N)[C@H](O)[C@H](C)O1 [Doxorubicin, reference compound] ?
10.7
